Data credit: ChEMBL document CHEMBL1914301

# Assay Remarks: Tmax in F344 rat plasma at 10 mg/kg, po by HPLC analysis
# Format: ADME, organism-based
# Design: dose 10 mg/kg, route oral
Recorded Endpoint: Tmax (h)

Chem Smiles: CC(=O)N1CCc2ccc(C(=O)CCCN3CCC(c4ccc(Cl)cc4)CC3)cc2C1
Tmax [h]: 2

(A) CC(=O)N1CCc2ccc(C(=O)CCCN3CCC(c4ccc(Cl)cc4)CC3)cc2CC1
(B) CCS(=O)(=O)N1CCc2ccc(C(=O)CCCN3CCC(c4ccc(Cl)cc4)CC3)cc2CC1
Challenge: Between the entries labelled A and B , which has a larger Tmax value on record? Identify your pick by its label.
Response given: A
(A: 2 h, B: 1 h)
